Test system: E. cloacae
Assay: Synergy of peptide and antibiotic, MIC and FIC (checkerboard)
Format: cell-based
Settings: Enterobacter cloacae, E. cloacae isolate 18, strain 3077; agent alone
Quick list: MIC per entry.
Measurement kind: MIC (µg/mL)

Compound	Measured value
C[C@@H](O)[C@H]1C(=O)N2C(C(=O)O)=C(SCCN=CN)C[C@H]12 [Imipenem]	4
CCN1CCN(C(=O)N[C@@H](C(=O)N[C@@H]2C(=O)N3[C@@H]2SC(C)(C)[C@@H]3C(=O)O)c2ccccc2)C(=O)C1=O [Piperacillin]	8
NC[C@H]1O[C@H](O[C@H]2[C@H](O)[C@@H](O[C@H]3O[C@H](CO)[C@@H](O)[C@H](N)[C@H]3O)[C@H](N)C[C@@H]2N)[C@H](N)C[C@@H]1O [Tobramycin]	1
CC(C)(O/N=C(\C(=O)N[C@@H]1C(=O)N2C(C(=O)[O-])=C(C[n+]3ccccc3)CS[C@H]12)c1csc(N)n1)C(=O)O [Ceftazidime]	2

###

Test system: X. maltophila
Assay: Synergy of peptide and antibiotic, MIC and FIC (checkerboard)
Format: cell-based
Conditions: X. maltophila isolate 42, strain TF29-1; agent alone
Reported MIC is given for each of the following compounds.

Compound	MIC
O=C(O)c1cn(C2CC2)c2cc(N3CCNCC3)c(F)cc2c1=O [Ciprofloxacin]	8 µg/mL
CCN1CCN(C(=O)N[C@@H](C(=O)N[C@@H]2C(=O)N3[C@@H]2SC(C)(C)[C@@H]3C(=O)O)c2ccccc2)C(=O)C1=O [Piperacillin]	1020 µg/mL
NC[C@H]1O[C@H](O[C@H]2[C@H](O)[C@@H](O[C@H]3O[C@H](CO)[C@@H](O)[C@H](N)[C@H]3O)[C@H](N)C[C@@H]2N)[C@H](N)C[C@@H]1O [Tobramycin]	2 µg/mL
CC(C)(O/N=C(\C(=O)N[C@@H]1C(=O)N2C(C(=O)[O-])=C(C[n+]3ccccc3)CS[C@H]12)c1csc(N)n1)C(=O)O [Ceftazidime]	4 µg/mL

###

Tested on: E. cloacae
Test: Synergy of peptide and antibiotic, MIC and FIC (checkerboard)
Format: cell-based
Settings: Enterobacter cloacae, E. cloacae isolate 12, strain ATCC 13047; agent alone
Measured MIC by item

Smiles structure	Unit symbol	MIC
CC(C)(O/N=C(\C(=O)N[C@@H]1C(=O)N2C(C(=O)[O-])=C(C[n+]3ccccc3)CS[C@H]12)c1csc(N)n1)C(=O)O	µg/mL	4
CCN1CCN(C(=O)N[C@@H](C(=O)N[C@@H]2C(=O)N3[C@@H]2SC(C)(C)[C@@H]3C(=O)O)c2ccccc2)C(=O)C1=O	µg/mL	8
NC[C@H]1O[C@H](O[C@H]2[C@H](O)[C@@H](O[C@H]3O[C@H](CO)[C@@H](O)[C@H](N)[C@H]3O)[C@H](N)C[C@@H]2N)[C@H](N)C[C@@H]1O	µg/mL	1
C[C@@H](O)[C@H]1C(=O)N2C(C(=O)O)=C(SCCN=CN)C[C@H]12	µg/mL	1
